Exercise: state measured thermal stability score for each of the sequences provided.
- System: HeLa Kyoto
- Assay Name: thermal stability score vs G1/S (z-score of summed log2 fold changes over temperatures); higher = more thermally stable than in G1/S
- Experimental Parameters: cell cycle stage: mitosis
Numbers only.

Dear colleague, could you send me thermal stability score for each of the items below? Thanks.
1. MAGAENWPGQQLELDEDEASCCRWGAQHAGARELAALYSPGKRLQEWCSVILCFSLIAHNLVHLLLLARWEDTPLVILGVVAGALIADFLSGLVHWGADTWGSVELPIVGKAFIRPFREHHIDPTAITRHDFIETNGDNCLVTLLPLLNMAYKFRTHSPEALEQLYPWECFVFCLIIFGTFTNQIHKWSHTYFGLPRWVTLLQDWHVILPRKHHRIHHVSPHETYFCITTGWLNYPLEKIGFWRRLEDLIQGLTGEKPRADDMKWAQKIK [TMEM189]
2. MSESLVVCDVAEDLVEKLRKFRFRKETNNAAIIMKIDKDKRLVVLDEELEGISPDELKDELPERQPRFIVYSYKYQHDDGRVSYPLCFIFSSPVGCKPEQQMMYAGSKNKLVQTAELTKVFEIRNTEDLTEEWLREKLGFFH [GMFB]

### Response
[-3.53, -3.58]

###

- Tested on: HeLa Kyoto
- Assay Name: thermal stability score vs G1/S (z-score of summed log2 fold changes over temperatures); higher = more thermally stable than in G1/S
- Experimental Parameters: cell cycle stage: early G1 (4.5 h after nocodazole release)
Exercise: state measured thermal stability score for each of the sequences provided.

Solved cases (3 shown):
primary_sequence="MALAARLLPQFLHSRSLPCGAVRLRTPAVAEVRLPSATLCYFCRCRLGLGAALFPRSARALAASALPAQGSRWPVLSSPGLPAAFASFPACPQRSYSTEEKPQQHQKTKMIVLGFSNPINWVRTRIKAFLIWAYFDKEFSITEFSEGAKQAFAHVSKLLSQCKFDLLEELVAKEVLHALKEKVTSLPDNHKNALAANIDEIVFTSTGDISIYYDEKGRKFVNILMCFWYLTSANIPSETLRGASVFQVKLGNQNVETKQLLSASYEFQREFTQGVKPDWTIARIEHSKLLE [C2ORF47]" measurement_name="thermal stability score" result=0.0315
primary_sequence="MALHSMRKARERWSFIRALHKGSAAAPALQKDSKKRVFSGIQPTGILHLGNYLGAIESWVRLQDEYDSVLYSIVDLHSITVPQDPAVLRQSILDMTAVLLACGINPEKSILFQQSQVSEHTQLSWILSCMVRLPRLQHLHQWKAKTTKQKHDGTVGLLTYPVLQAADILLYKSTHVPVGEDQVQHMELVQDLAQGFNKKYGEFFPVPESILTSMKKVKSLRDPSAKMSKSDPDKLATVRITDSPEEIVQKFRKAVTDFTSEVTYDPAGRAGVSNIVAVHAAVTGLSVEEVVRRSAGMNTARYKLAVADAVIEKFAPIKREIEKLKLDKDHLEKVLQIGSAKAKELAYTVCQEVKKLVGFL [WARS2]" measurement_name="thermal stability score" result=0.66
primary_sequence="MPMFIVNTNVPRASVPDGFLSELTQQLAQATGKPPQYIAVHVVPDQLMAFGGSSEPCALCSLHSIGKIGGAQNRSYSKLLCGLLAERLRISPDRVYINYYDMNAANVGWNNSTFA [MIF]" measurement_name="thermal stability score" result=-7.37

Dear colleague, could you send me thermal stability score for each of the items below? Thanks.
1. MAHVGSRKRSRSRSRSRGRGSEKRKKKSRKDTSRNCSASTSQGRKASTAPGAEASPSPCITERSKQKARRRTRSSSSSSSSSSSSSSSSSSSSSSSSSDGRKKRGKYKDKRRKKKKKRKKLKKKGKEKAEAQQVEALPGPSLDQWHRSAGEEEDGPVLTDEQKSRIQAMKPMTKEEWDARQSIIRKVVDPETGRTRLIKGDGEVLEEIVTKERHREINKQATRGDCLAFQMRAGLLP [ARL6IP4]
2. MAPRRVRSFLRGLPALLLLLLFLGPWPAASHGGKYSREKNQPKPSPKRESGEEFRMEKLNQLWEKAQRLHLPPVRLAELHADLKIQERDELAWKKLKLDGLDEDGEKEARLIRNLNVILAKYGLDGKKDARQVTSNSLSGTQEDGLDDPRLEKLWHKAKTSGKFSGEELDKLWREFLHHKEKVHEYNVLLETLSRTEEIHENVISPSDLSDIKGSVLHSRHTELKEKLRSINQGLDRLRRVSHQGYSTEAEFEEPRVIDLWDLAQSANLTDKELEAFREELKHFEAKIEKHNHYQKQLEIAHEKLRHAESVGDGERVSRSREKHALLEGRTKELGYTVKKHLQDLSGRISRARHNEL [LRPAP1]
3. MSHGHSHGGGGCRCAAEREEPPEQRGLAYGLYLRIDLERLQCLNESREGSGRGVFKPWEERTDRSKFVESDADEELLFNIPFTGNVKLKGIIIMGEDDDSHPSEMRLYKNIPQMSFDDTEREPDQTFSLNRDLTGELEYATKISRFSNVYHLSIHISKNFGADTTKVFYIGLRGEWTELRRHEVTICNYEASANPADHRVHQVTPQTHFIS [PITHD1]

### Response
1: -1.78; 2: 2.72; 3: -1.84

###

Exercise: state measured solubility in G1/S (log2) for each of the sequences provided.
- System: HeLa Kyoto
- Assay Name: solubility in G1/S (NP-40 vs SDS abundance) (log2 ratio); higher = more soluble
- Experimental Parameters: cell cycle stage: G1/S

Solved cases (2 shown):
primary_sequence="MTCWLRGVTATFGRPAEWPGYLSHLCGRSAAMDLGPMRKSYRGDREAFEETHLTSLDPVKQFAAWFEEAVQCPDIGEANAMCLATCTRDGKPSARMLLLKGFGKDGFRFFTNFESRKGKELDSNPFASLVFYWEPLNRQVRVEGPVKKLPEEEAECYFHSRPKSSQIGAVVSHQSSVIPDREYLRKKNEELEQLYQDQEVPKPKSWGGYVLYPQVMEFWQGQTNRLHDRIVFRRGLPTGDSPLGPMTHRGEEDWLYERLAP [PNPO]" result=0.682
primary_sequence="MAAAPLKVCIVGSGNWGSAVAKIIGNNVKKLQKFASTVKMWVFEETVNGRKLTDIINNDHENVKYLPGHKLPENVVAMSNLSEAVQDADLLVFVIPHQFIHRICDEITGRVPKKALGITLIKGIDEGPEGLKLISDIIREKMGIDISVLMGANIANEVAAEKFCETTIGSKVMENGLLFKELLQTPNFRITVVDDADTVELCGALKNIVAVGAGFCDGLRCGDNTKAAVIRLGLMEMIAFARIFCKGQVSTATFLESCGVADLITTCYGGRNRRVAEAFARTGKTIEELEKEMLNGQKLQGPQTSAEVYRILKQKGLLDKFPLFTAVYQICYESRPVQEMLSCLQSHPEHT [GPD1L]" result=0.144

// next entry
Entry MAGTGLVAGEVVVDALPYFDQGYEAPGVREAAAALVEEETRRYRPTKNYLSYLTAPDYSAFETDIMRNEFERLAARQPIELLSMKRYELPAPSSGQKNDITAWQECVNNSMAQLEHQAVRIENLELMSQHGCNAWKVYNENLVHMIEHAQKELQKLRKHIQDLNWQRKNMQLTAGSKLREMESNWVSLVSKNYEIERTIVQLENEIYQIKQQHGEANKENIRQDF [BCAS2] ; solubility in G1/S (log2) = -0.134

###

- System: HeLa Kyoto
- Assay Name: melting temperature (median over replicates), in situ; higher = more thermally stable
- Experimental Parameters: cell cycle stage: mitosis
Exercise: state measured melting temperature for each of the sequences provided.
One number for each entry, in °C.

primary_sequence="MSDVEENNFEGRESRSQSKSPTGTPARVKSESRSGSRSPSRVSKHSESHSRSRSKSRSRSRRHSHRRYTRSRSHSHSHRRRSRSRSYTPEYRRRRSRSHSPMSNRRRHTGSRANPDPNTCLGVFGLSLYTTERDLREVFSRYGPLSGVNVVYDQRTGRSRGFAFVYFERIDDSKEAMERANGMELDGRRIRVDYSITKRAHTPTPGIYMGRPTHSGGGGGGGGGGGGGGGGRRRDSYYDRGYDRGYDRYEDYDYRYRRRSPSPYYSRYRSRSRSRSYSPRRY [TRA2A]" numeric_readout=49.5
primary_sequence="MVSPATRKSLPKVKAMDFITSTAILPLLFGCLGVFGLFRLLQWVRGKAYLRNAVVVITGATSGLGKECAKVFYAAGAKLVLCGRNGGALEELIRELTASHATKVQTHKPYLVTFDLTDSGAIVAAAAEILQCFGYVDILVNNAGISYRGTIMDTTVDVDKRVMETNYFGPVALTKALLPSMIKRRQGHIVAISSIQGKMSIPFRSAYAASKHATQAFFDCLRAEMEQYEIEVTVISPGYIHTNLSVNAITADGSRYGVMDTTTAQGRSPVEVAQDVLAAVGKKKKDVILADLLPSLAVYLRTLAPGLFFSLMASRARKERKSKNS [DHRS7B]" numeric_readout=51.4

// next entry
Entry MAAGGRMEDGSLDITQSIEDDPLLDAQLLPHHSLQAHFRPRFHPLPTVIIVNLLWFIHLVFVVLAFLTGVLCSYPNPNEDKCPGNYTNPLKVQTVIILGKVILWILHLLLECYIQYHHSKIRNRGYNLIYRSTRHLKRLALMIQSSGNTVLLLILCMQHSFPEPGRLYLDLILAILALELICSLICLLIYTVKIRRFNKAKPEPDILEEEKIYAYPSNITSETGFRTISSLEEIVEKQGDTIEYLKRHNALLSKRLLALTSSDLGCQPSRT [TMEM192] ; melting temperature = 55.9
